# Tested on: NCI-H292 lung cancer cells
# method-description: FDA drug screening, complete media vs cholesterol-free media without statin (TABLE 1)
# Type: cell-based, human
# particulars: Complete minus Cholesterol-free; greater than 0 enhanced anti-cancer activity, about 0 neutral, below 0 antagonists
Where a name gives a salt, the structure may show the parent alone.
parameter: Difference
Write the value as a bare number.

| molecule | target-entity | Difference |
| --- | --- | --- |
| COc1cc(NS(=O)(=O)c2ccc(N)cc2)ncn1 [Sulfamonomethoxine] | NCI-H292 lung cancer cells | −0.48 |
| Cc1ccccc1N1CCN(CCc2nnc3n2CCCC3)CC1 [Dapiprazole (hydrochloride)] | NCI-H292 lung cancer cells | −0.49 |
| CCCN[C@H]1CCc2nc(N)sc2C1 [Pramipexole] | NCI-H292 lung cancer cells | −0.68 |
| C=C1c2cccc(O)c2C(=O)C2=C(O)[C@]3(O)C(=O)C(C(N)=O)=C(O)[C@@H](N(C)C)[C@@H]3[C@@H](O)[C@H]12 [Methacycline (hydrochloride)] | NCI-H292 lung cancer cells | −0.57 |
| CCN1CC(CCN2CCOCC2)C(c2ccccc2)(c2ccccc2)C1=O (centres unmarked) [Doxapram (hydrochloride hydrate)] | NCI-H292 lung cancer cells | −1.01 |
| C=CCN1C[C@H](C(=O)N(CCCN(C)C)C(=O)NCC)C[C@@H]2c3cccc4[nH]cc(c34)C[C@H]21 [Cabergoline] | NCI-H292 lung cancer cells | −0.59 |
| O=C1C2CC3CC1CC(O)(C3)C2 [Idramantone] | NCI-H292 lung cancer cells | −0.71 |

Below: the item to evaluate.
Which measured Difference value corresponds to CN(CC(=O)O)C(=N)N [Creatine] ?
−0.96

---

# System: NCI-H292 lung cancer cells
# method-description: FDA drug screening, complete media vs cholesterol-free media without statin (TABLE 1)
# Format: cell-based, human
# particulars: NCI-H292 cells, cholesterol-free media without statin
Where a name gives a salt, the structure may show the parent alone.
parameter: Cholesterol-free
Write the value as a bare number.

| molecule | target-entity | parameter | observed-result |
| --- | --- | --- | --- |
| Cc1cc(-c2ccccc2)nnc1NCCN1CCOCC1 [Minaprine (dihydrochloride)] | NCI-H292 lung cancer cells | Cholesterol-free | 1.341 |
| O=C(O)CC(O)(CC(=O)O)C(=O)O | NCI-H292 lung cancer cells | Cholesterol-free | 1.776 |
| Cc1ccc(C(C)C)cc2c(C)ccc1-2 [Guaiazulene] | NCI-H292 lung cancer cells | Cholesterol-free | 1.231 |
| Cc1cnc(C(=O)NCCc2ccc(S(=O)(=O)NC(=O)NC3CCCCC3)cc2)cn1 [Glipizide] | NCI-H292 lung cancer cells | Cholesterol-free | 1.844 |

Below: the item to evaluate.
Which measured Cholesterol-free value corresponds to COCCOC(=O)C1=C(C)NC(C)=C(C(=O)OC(C)C)C1c1cccc([N+](=O)[O-])c1 (centres unmarked) [Nimodipine] ?
1.269

---

# Test system: NCI-H292 lung cancer cells
# method-description: FDA drug screening, complete media vs cholesterol-free media with simvastatin (TABLE 2)
# Assay type: cell-based, human
# particulars: NCI-H292 cells, FDA drug library screen, complete media
Where a name gives a salt, the structure may show the parent alone.
Define the label as class 1 when Complete Media is strictly less than 1 and as class 0 in all remaining cases.

See these solved cases before continuing.
| compound | class-label |
| --- | --- |
| N[C@@H](CC(=O)N1CCn2c(nnc2C(F)(F)F)C1)Cc1cc(F)c(F)cc1F [Sitagliptin] | class 0 |
| CC(C)NNC(=O)c1ccncc1 [Iproniazid] | class 0 |
| CCCCCCCCCC(=O)N[C@@H](Cc1c[nH]c2ccccc12)C(=O)N[C@H](CC(N)=O)C(=O)N[C@@H](CC(=O)O)C(=O)N[C@@H]1C(=O)NCC(=O)N[C@@H](CCCN)C(=O)N[C@@H](CC(=O)O)C(=O)N[C@H](C)C(=O)N[C@@H](CC(=O)O)C(=O)NCC(=O)N[C@H](CO)C(=O)N[C@@H]([C@H](C)CC(=O)O)C(=O)N[C@@H](CC(=O)c2ccccc2N)C(=O)O[C@@H]1C [Daptomycin] | class 0 |
| Clc1ccc(CCCOCCCN2CCCCC2)cc1 [Pitolisant (hydrochloride)] | class 0 |
| CC(C)(C)N.CCC[C@H](N[C@@H](C)C(=O)N1[C@H](C(=O)O)C[C@@H]2CCCC[C@@H]21)C(=O)OCC [Perindopril (erbumine)] | class 1 |
| O=C(Nc1nc(-c2cc(Cl)cs2)c(N2CCN(C3CCCCC3)CC2)s1)c1cnc(N2CCC(C(=O)O)CC2)c(Cl)c1 [Avatrombopag (hydrochloride)] | class 0 |
| Cc1cc(Nc2ncc(Cl)c(Nc3ccccc3S(=O)(=O)C(C)C)n2)c(OC(C)C)cc1C1CCNCC1 [Ceritinib dihydrochloride] | class 1 |
| CCCC(=O)OC[C@@H](OC(=O)CCC)[C@@H](OC(=O)CCC)[C@H](Cn1c2nc(=O)[nH]c(=O)c-2nc2cc(C)c(C)cc21)OC(=O)CCC [Riboflavin Tetrabutyrate] | class 0 |
| CC(C)NCC(O)c1ccc(NS(C)(=O)=O)cc1 (centres unmarked) [Sotalol (hydrochloride)] | class 1 |
| Cl.Cl.[O-][S+]1c2ccccc2N=C(N2CCN(CCOCCO)CC2)c2ccccc21 (centres unmarked) [Quetiapine sulfoxide (dihydrochloride)] | class 0 |

# strict comparison: is reported Complete Media < 1? input = CNC(=O)c1c(C)oc2cc(Oc3ncnc4cc(OC)c(OC)cc34)ccc12 [Fruquintinib]
class 0

Next compound: CC(=O)Nc1cccc(-n2c(=O)n(C3CC3)c(=O)c3c(Nc4ccc(I)cc4F)n(C)c(=O)c(C)c32)c1 [Trametinib (DMSO solvate)]
class 1

Next compound: CC(=O)c1ccc2c(c1)N(CCCN1CCC(CCO)CC1)c1ccccc1S2 [Piperacetazine]
class 1
